Each entry below carries its reported Kd.
# Assay Target: T1, human CD3e/g antigen (ACRO, catalog number CDG-H52W5) (human, UniProt P07766 23-126; P09693 23-116)
# T1 construct: Bought reagent used as the Biacore analyte; also called hCD3e/g
# Test Description: SPR (Biacore 8K), antibody captured via anti-human Fc
A number alone suffices; assume nM.

Record excerpt, results attached:
{"Binder": "hAb007-20 (antibody, V domains shown, Humanized; constant regions not specified) VH: QVQLVQSGAEVKKPGASVKVSCKASGSTFTDNYIHWVRQAPGQRLEWMGWIYPGSVNIKYNEKFKDRVTITRDTSASTAYMELSSLRSEDTAVYYCARDISRYYFDYWGQGTTVTVSS VL: DIVMTQSPDSLAVSLGERATMNCKSSQSLLNSRTRKNYLAWYQQKPGQPPKLLIYWASTRESGVPDRFTGSGSGTDFTLTISSLQAEDVAVYYCKQSFILRTFGGGTKLEIK", "Endpoint Value": 11.1}
{"Binder": "hAb007-21 (antibody, V domains shown, Humanized; constant regions not specified) VH: QVQLVQSGAEVKKPGASVKVSCKASGSTFTDNYIHWVRQAPGQRLEWIGWIYPGSVNIKYNEKFKDRVTITADTSASTAYMELSSLRSEDTAVYYCARDISRYYFDYWGQGTTVTVSS VL: DIVMTQSPDSLAVSLGERATINCKSSQSLLNSRTRKNYLAWYQQKPGQPPKLLIYWASTRESGVPDRFSGSGSGTDFTLTISSLQAEDVAVYYCKQSFILRTFGGGTKLEIK", "Endpoint Value": 8.06}
{"Binder": "hAb008-21 (antibody, V domains shown, Humanized; constant regions not specified) VH: QVQLVQSGAEVKKPGASVKVSCKASGYTFTDYTVNWVRQAPGQRLEWIGYINPFNSYTKYNQKFKDRVTITADTSASTAYMELSSLRSEDTAVYYCANSVSTYWGQGTTVTVSS VL: DVVMTQSPLSLPVTLGQPASISCKSSQSLLDSDGKTYLNWFQQRPGQSPRRLIQLVSKLNSGVPDRFSGSGSGTDFTLKISRVEAEDVGVFYCWQGTHFPRTFGGGTKLEIK", "Endpoint Value": 18.6}
{"Binder": "hAb007-17 (antibody, V domains shown, Humanized; constant regions not specified) VH: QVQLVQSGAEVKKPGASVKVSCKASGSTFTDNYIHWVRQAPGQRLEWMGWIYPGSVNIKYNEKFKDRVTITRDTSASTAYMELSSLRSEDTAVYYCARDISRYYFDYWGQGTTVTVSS VL: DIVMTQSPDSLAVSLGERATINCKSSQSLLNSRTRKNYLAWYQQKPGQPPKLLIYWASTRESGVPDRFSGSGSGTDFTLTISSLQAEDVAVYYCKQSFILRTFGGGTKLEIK", "Endpoint Value": 5.85}

input: Determine from records and report Kd for hAb001-29 (antibody, V domains shown, Humanized; constant regions not specified) VH: QVQLVQSGAEVKKPGASVKVSCKASGYSFTNYYMHWVKQAPGQRLEWIGWTYPGNNNIKYNEKFKGRATITADTSASTAYMELSSLRSEDTAVYYCARDGYGYYFFDYWGQGTLVTVSS VL: DIVMTQSPDSLAVSLGERATINCKSSQSLLNNRTRKNYLAWYQQKPGQPPKLLIYWASTRESGVPDRFSGSGSGTDFTLTISSLQAEDVAVYYCKQSYTLRTFGGGTKLEIK
output: 22.8
